Some compounds, each annotated with its measured z-score.
- METHOD DESCRIPTION: growth of efflux-deficient E. coli DRC39 – strain DRC39, OD650, 24 h, E. coli filamentation inducers, primary screen (AID 1178);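 also: growth measured as culture turbidity by optical density at 650 nm; test concentration not given here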
- TEST CONTEXT: E. coli DRC39 acrAB, higher = more signal, called active from +8 up or from −8 down
MEASUREMENT LABEL: z-score

[
  {
    "COMPOUND": "CCCC1(C(=O)OC)C=C2C(=C(c3ccccc3)C(=O)C2C)CN1 (stereo not given)",
    "READING": -0.0785
  },
  {
    "COMPOUND": "COc1ccc(C(O)C2C=CC3C(=O)N(C)C(=O)C3N2N(c2ccccc2)c2ccccc2)c2ccccc12 (stereo not given)",
    "READING": -0.546
  },
  {
    "COMPOUND": "COC(=O)C(CC#Cc1ccc2c(c1)[C@]1(C(=O)N2)[C@H](c2ccc(O)cc2)N2[C@H](c3ccccc3)[C@H](c3ccccc3)OC(=O)[C@H]2[C@@H]1C(=O)N1CCN(c2ncccn2)CC1)C(=O)OC",
    "READING": 0.551
  },
  {
    "COMPOUND": "CCCCN1CC=CC23O[C@@H]4C=CCCOC(=O)C4[C@H]2C(=O)N(CCCCCO)[C@@H]3C1=O (stereo not given in full)",
    "READING": 0.593
  },
  {
    "COMPOUND": "O=C(O)[C@H]1C[C@H]2C(=O)N3CCC[C@H]3C(=O)N2[C@H]1c1ccc(O)cc1",
    "READING": 0.408
  },
  {
    "COMPOUND": "CCOC(=O)C[C@H]1[C@H](OC(=O)c2cc3ccccc3oc2=O)[C@@H](NC(=O)CC(C)C)c2cc(OCCCO)ccc2N1C(=O)c1ccccc1",
    "READING": 1.94
  },
  {
    "COMPOUND": "CO[C@H]1O[C@H](CO)[C@@H](OC(=O)Nc2ccc(Oc3ccccc3)cc2)[C@H](OC(=O)Nc2ccc3c(c2)OCO3)[C@@H]1OC(=O)Nc1ccc2c(c1)OCO2",
    "READING": 0.759
  },
  {
    "COMPOUND": "C=CCC(OC(C)=O)[C@@H]1[C@@H](N(Cc2ccc(-c3ccccc3)cc2)C(=O)Cc2ccc(F)cc2)c2cc(OCCCO)ccc2N1C(=O)c1ccc2ccccc2c1 (stereo not given in full)",
    "READING": -0.794
  },
  {
    "COMPOUND": "C=CCN1C(=O)[C@]2(O[C@H](CCO)[C@@H]([Si](C)(C)c3ccc(OC)cc3)[C@@H]2C)c2cc(N(C=O)c3ccccc3)ccc21",
    "READING": 1.72
  },
  {
    "COMPOUND": "OB1C=CCC(CCc2ccccc2)O1 (stereo not given)",
    "READING": 2.73
  },
  {
    "COMPOUND": "COCCCNC(=O)[C@@]1(CCS(=O)(=O)c2ccccc2)N=C(c2ccc(OCCCO)cc2)O[C@H]1c1ccccc1N=[N+]=[N-]",
    "READING": 1.28
  },
  {
    "COMPOUND": "NC(=O)NCC#Cc1ccc2c(c1)[C@]1(C(=O)N2)[C@H](C(=O)O)[C@H]2C(=O)O[C@H](c3ccccc3)[C@H](c3ccccc3)N2[C@@H]1c1ccc(O)cc1",
    "READING": -0.131
  },
  {
    "COMPOUND": "C=C(CCCC)C(=O)CC[C@H](OC(=O)c1cccnc1)c1ccc(OCCO)cc1",
    "READING": -0.911
  },
  {
    "COMPOUND": "NCCCCCNC(=O)[C@H]1C[C@H]2C(=O)N[C@@H](Cc3ccccc3)C(=O)N2[C@H]1c1cccc(OCCO)c1",
    "READING": -0.154
  },
  {
    "COMPOUND": "COC(=O)[C@@]1(Cc2ccc(OC)cc2)[C@H]2c3cc(C(=O)N4CCCC4)n(Cc4nc5ccccc5[nH]4)c3C[C@H]2CN1C(=O)c1ccccc1",
    "READING": -0.0181
  }
]
